Listing: average percent knockdown of selected molecules
Tested on: CH strain flies
Experiment: spray application of pyrethrum, average percent knockdown with time
Assay type: in vivo, housefly (CH strain)
Details: pyrethrum 100 + synergist 100 mg/cc, 60 min

{"columns": ["smilesText", "average percent knockdown"],
 "data": [
  ["C#CCON=Cc1ccc(Cl)cc1Cl", "94%"],
  ["C#CCOCc1c(Cl)ccc(Cl)c1Cl", "95%"],
  ["C#CCON=Cc1cccc2ccccc12", "92%"],
  ["C#CCON=C(C)c1ccc(Cl)cc1", "88%"]
]}

* * *

System: mice
Assay: extension of Secobarbital sleeping time by synergists
Assay type: in vivo, Swiss albino white male mice
Conditions: Secobarbital 37 mg/K, synergist 110 mg/K; treated/control
valueType: Relative Sleeping Time

{"columns": ["smilesText", "numericReadout"],
 "data": [
  ["C#CCON=C(C)c1ccc(Cl)cc1", 1.7],
  ["C#CCOCc1ccccc1[N+](=O)[O-]", 1.0],
  ["C#CCON=Cc1cccc2ccccc12", 1.7],
  ["C#CCOCc1c(Cl)cccc1[N+](=O)[O-]", 2],
  ["C#CCOCc1cccc2ccccc12", 1.6],
  ["C#CCn1ncc2cc([N+](=O)[O-])ccc21", 1.1]
]}

* * *

System: mice
Test: extension of Noludar sleeping time by synergists
Format: in vivo, Swiss albino white male mice
Details: Noludar 110 mg/K, synergist 110 mg/K
One threshold, 60 min, splits the recorded Mean Sleeping Time values: lower ones are 1, equal or higher ones are 0.

{"columns": ["compound", "classAssignment"],
 "data": [
  ["C#CCOC(c1ccc(Cl)cc1)C(C)[N+](=O)[O-] (centres unmarked) [IV-C]", 0],
  ["C#CCOCc1c(Cl)ccc(Cl)c1Cl [II-E]", 1],
  ["C#CCON=Cc1ccc(Cl)cc1Cl [I-G]", 1],
  ["C#CCOCc1ccc(Cl)cc1[N+](=O)[O-] [II-J]", 0],
  ["C#CCOCc1c(Cl)cccc1Cl [II-H]", 0],
  ["C#CCOCc1ccc(Cl)c([N+](=O)[O-])c1 [II-M]", 1],
  ["C#CCON=Cc1cccc([N+](=O)[O-])c1 [I-B]", 0],
  ["C#CCn1ncc2cc([N+](=O)[O-])ccc21 [III-A]", 1],
  ["C#CCOCc1ccc([N+](=O)[O-])cc1 [II-Q, 4-nitrobenzyl 2-propynyl ether]", 1],
  ["C#CCOCc1ccc(Cl)c(Cl)c1Cl [II-D]", 1],
  ["C#CCOCc1ccc([N+](=O)[O-])cc1Cl [II-N]", 1],
  ["C#CCON=C(C)c1ccc(Cl)cc1 [I-D]", 1],
  ["C#CCON=Cc1ccc(N(C)C)cc1 [I-C]", 1],
  ["C#CCOCc1cccc([N+](=O)[O-])c1Cl [II-L]", 1],
  ["C#CCOCc1ccccc1[N+](=O)[O-] [II-P, 2-nitrobenzyl 2-propynyl ether]", 1],
  ["C#CCOCc1cccc(Cl)c1[N+](=O)[O-] [II-I]", 1],
  ["C#CCON=C(C)c1ccc2ccccc2c1 [I-F]", 1],
  ["C#CCOCc1cc(Cl)c(Cl)cc1Cl [II-F]", 1],
  ["C#CCOCc1ccc(Cl)c(Cl)c1 [II-C]", 1],
  ["C#CCn1nc(Cl)c2ccccc21 [III-B]", 1],
  ["C#CCOCc1ccc([N+](=O)[O-])c(Cl)c1 [II-O]", 1],
  ["C#CCOC(c1ccc(Cl)cc1Cl)C(C)[N+](=O)[O-] (centres unmarked) [IV-A]", 0],
  ["C#CCON=Cc1cccc2ccccc12 [I-I]", 0],
  ["C#CCOCc1c(Cl)cccc1[N+](=O)[O-] [II-K]", 0],
  ["C#CCn1ncc2ccc(Cl)cc21 [III-D]", 1],
  ["C#CCOCc1cccc2ccccc12 [II-R, α-naphthylmethyl 2-propynyl ether]", 1]
]}
